- Assay procedure: NCI Yeast Anticancer Drug Screen. Data for the mlh1 rad18 strain (AID 175)
- Measurement context: S. cerevisiae mlh1 rad18 strain growth inhibition; at 50.0 µM; hits give high values
The panel holds about 79,000 compounds, 15% with a hit somewhere; the sample as a whole holds those more often. Where a SMILES comes first, the peptide text is derived from it. The star is where a group is joined. OtBu = CC(C)(C)O*
Value kind: growth inhibition (%)
Answers are plain numbers, in %.

Worked cases, growth inhibition given:
| Compound | growth inhibition [%] |
| --- | --- |
| Cc1cc(C)c(C2=[N+]([O-])ON3CCc4ccccc4C23)c(C)c1 (stereo not drawn) | -3.2 |
| CCNCC(=O)Nc1ccc2c(c1)C(=O)c1ccc(NC(=O)CNCC)cc1C2=O | 50.8 |
| O=C1c2cc(F)ccc2-c2c(F)cc(F)cc21 | -8.8 |
| CC(=O)c1nc2ccccc2n1CC(=O)c1ccc([N+](=O)[O-])cc1 | -8.1 |

Quick request: growth inhibition for each listed item, please.
1. COC(=O)Cc1cccnc1
2. CSc1cccc(NC(=S)NN/C(=N/S(=O)(=O)c2ccccc2)N2CCCC2)c1
3. COC(=O)C1CCCN1C(=O)C(C)=O (stereo not drawn)
4. CCC/C=N/Nc1ccc([N+](=O)[O-])cc1[N+](=O)[O-]
5. Cc1ncc2c(n1)NC(=O)NC2
6. CCOC(=O)C(=CNc1cccc(N)n1)C(=O)OCC

Result string:
1: 12.7; 2: -1.2; 3: -5.45; 4: -16.1; 5: -13.9; 6: 5.75

Quick request: growth inhibition for each listed item, please.
1. CC1(C)O[C@@H]2C[C@H]3[C@@H]4C[C@H](F)C5=CC(=O)C=C[C@]5(C)[C@@]4(F)[C@@H](O)C[C@]3(C)[C@]2(C(=O)CO)O1
2. CC(=O)c1cccc(NC(=O)Oc2ccc(Cl)cc2Cl)c1
3. N#C/C(=C\C=C\c1ccccc1)C(N)=O

Result string:
1: -8.35; 2: 4.3; 3: -49.8

Quick request: growth inhibition for each listed item, please.
1. CN1CCC/C1=C/C(=O)c1ccccc1[N+](=O)[O-]
2. CCOc1c(N=Nc2ccccc2C)c(C)nn1C(=S)SC
3. O=C(N/N=C/c1ccc(Cl)cc1)c1ccccc1NC(=O)C1CC1
4. COc1ccc(Cl)cc1NC(=O)c1ccc(C(=O)Nc2cc(Cl)ccc2OC)cc1
5. CCCCCCCCCCCl
6. C=C1OC(C2CCCCC2)=C(C(=O)OCC)C1C (stereo not drawn)
7. Cc1ccccc1NC(=O)c1ccccc1Cl
8. O=C(Cc1ccccc1)NN1C(=O)/C(=C\c2ccccc2O)SC1=Nc1ccccc1

Result string:
-11.7
15.7
33.2
9.5
25
-9.45
-25.6
7.25

Quick request: growth inhibition for each listed item, please.
1. CC1(C#N)CCCC(c2ccccc2)(c2ccccc2)C1=O (stereo not drawn)
2. O=c1[nH]cnc2ccccc12
3. CC1(C)OC(=O)CC1CCN (stereo not drawn)
4. Clc1ccc(-c2nnc3c4ccccc4ccn23)cc1

Result string:
1. 34.5
2. 14.7
3. 13.2
4. 1

Quick request: growth inhibition for each listed item, please.
1. Cc1cc(C)c(-c2no/c(=N\S(=O)(=O)c3ccc(Cl)cc3)o2)c(C)c1
2. CCOC(=O)C(NC(=O)CC)(Nc1ccc(S(=O)(=O)Nc2onc(C)c2C)cc1)C(F)(F)F (stereo not drawn)
3. O=C(CP(c1ccccc1)c1ccccc1)c1cccc(C(=O)CP(c2ccccc2)c2ccccc2)c1
4. CC(C)CC(NC(=O)C1CCCN1)C(=O)NC(CC(C)C)C(=O)OC(C)(C)C (stereo not drawn) (H-Pro-Leu-Leu-OtBu; configuration not given here)
5. NC(N)=NS(=O)(=O)c1ccc(NC(=O)c2cccc3c(N)c4ccccc4nc23)cc1

Result string:
1: 3.85; 2: -17.4; 3: -19.4; 4: 30.9; 5: -10.2

Quick request: growth inhibition for each listed item, please.
1. Cc1cc(C)c(/C(O)=C/C(=S)N2CCOCC2)c(C)c1
2. O=C1c2ccccc2C2(O)NC(=S)N(c3ccccc3)C12O (stereo not drawn)
3. CCCCCCCCCCCCCCCCCCOCCCCCC

Result string:
1: 32.6; 2: -2.1; 3: -7.55
